System: TO-N3 (biotin conjugate)
Experiment: pull-down binding Z-score (relative to library population); higher = stronger binding
Conditions: RNA library: Library-2
Label Fulfilled for high-side pull-down binding Z-score (at or above 1) and Not fulfilled for low-side pull-down binding Z-score (below it).

>>> df
                            sequence_string     target_or_test_system    label_class
0    GGGUGGGUGGGUGGGUGGGUGGGU [G4_r(GGGU)6]  TO-N3 (biotin conjugate)      Fulfilled
1        UUCAUUUUAUUUAUGAUGAG [hsa-mir-496]  TO-N3 (biotin conjugate)  Not fulfilled
2     AGUGAGUUGAUUACUUCUCACU [hsa-mir-4676]  TO-N3 (biotin conjugate)  Not fulfilled
3              UGUUGGGGGGACA [hsa-mir-4262]  TO-N3 (biotin conjugate)      Fulfilled
4  GAAGCUGUAAGACACAGCUAAGCUUU [hsa-mir-30d]  TO-N3 (biotin conjugate)  Not fulfilled
5  CUCUCCUGACCAGCUGAGCUGGAGGAGAG [hsa-mir-3160-2]  TO-N3 (biotin conjugate)  Not fulfilled
6  CGCGGGCGGGUCCCAGGCUGGGCCCCUCGGAGGCCGGGUGCUCACUGCCCCGUCCCGG [hsa-mir-6789]  TO-N3 (biotin conjugate)      Fulfilled
7                GGUGGGUGCC [hsa-mir-1268b]  TO-N3 (biotin conjugate)  Not fulfilled
8  CACCAAGACUACUUACUGGUG [IAV_invivo_PB1_2_Motif_22+IAV_invivo_PB1_2_Motif_22]  TO-N3 (biotin conjugate)  Not fulfilled
9  GCUGGGGCGCGGGCUUUCGCUUUCAGUCGAGGGCUAGCGAGCGCAGC [hsa-mir-7846]  TO-N3 (biotin conjugate)      Fulfilled
